# System: NS5A chimeric genotype 1b Con1 replicon with genotype 3a S52 strain NS5A gene
# ASSAY_EXPLANATION: Replicon assay, genotype 3a NS5A chimera
# Assay type: cell-based, HCV
# PROTOCOL_CONDITIONS: Hepatitis C virus, read-out: 3a (s) (nM), genotype 3a NS5A chimeric replicon, stable replicon cells (s)
Class boundaries, taken from values of EC50, are as follows: category 1 = under 0.06 nM, category 2 = from 0.06 nM up to 0.2 nM, category 3 = 0.2 nM and over

>>> answer_label("COC(=O)N[C@H](C(=O)N1[C@@H](C)CC[C@H]1c1ncc(-c2ccc3c(c2)COc2cc4c(ccc5nc([C@@H]6CC[C@H](C)N6C(=O)[C@H](NC(=O)OC)c6ccccc6)[nH]c54)cc2-3)[nH]1)C(C)C")
"category 1"
>>> answer_label("CC[C@H](C)[C@H](NC(=O)OC)C(=O)N1[C@@H](C)CC[C@H]1c1ncc(-c2ccc3c(c2)COc2cc4c(ccc5nc([C@@H]6C[C@@H]7CCC[C@@H]7N6C(=O)[C@@H](NC(=O)OC)C6CCOCC6)[nH]c54)cc2-3)[nH]1")
"category 2"
>>> answer_label("COC(=O)N[C@H](C(=O)N1[C@@H](C)CC[C@H]1c1ncc(-c2ccc3c(c2)COc2cc4c(ccc5nc([C@@H]6CC[C@H](C)N6C(=O)[C@@H](NC(=O)OC)[C@H](C)O)[nH]c54)cc2-3)[nH]1)C(C)C")
"category 2"
>>> answer_label("CC[C@H]1CC[C@@H](c2nc3ccc4cc5c(cc4c3[nH]2)OCc2cc(-c3cnc([C@@H]4CC[C@H](C)N4C(=O)[C@@H](NC(=O)OC)[C@@H](C)OC)[nH]3)ccc2-5)N1C(=O)[C@@H](NC(=O)OC)[C@@H](C)OC")
"category 2"
>>> answer_label("CC[C@H]1CC[C@@H](c2nc3ccc4cc5c(cc4c3[nH]2)OCc2cc(-c3cnc([C@@H]4C[C@@H]6CCC[C@@H]6N4C(=O)[C@@H](NC(=O)OC)[C@@H](C)CC)[nH]3)ccc2-5)N1C(=O)[C@@H](NC(=O)OC)C1CCOCC1")
"category 3"
>>> answer_label("COC(=O)N[C@H](C(=O)N1[C@@H](C)CC[C@H]1c1ncc(-c2ccc3c(c2)COc2cc4c(ccc5nc([C@@H]6C[C@H](C)CN6C(=O)[C@@H](NC(=O)OC)[C@H](C)OC)[nH]c54)cc2-3)[nH]1)C(C)C")
"category 3"
>>> answer_label("COC(=O)N[C@H](C(=O)N1[C@@H](C)CC[C@H]1c1nc2ccc3cc4c(cc3c2[nH]1)OCc1cc(-c2cnc([C@@H]3[C@@H]5C[C@@H]5CN3C(=O)[C@@H](NC(=O)OC)[C@@H](C)OC)[nH]2)ccc1-4)C(C)C")
"category 2"
>>> answer_label("CC[C@H](C)C(NC(=O)OC)C(=O)N1[C@@H](C)CC[C@H]1c1nc2ccc3cc4c(cc3c2[nH]1)OCc1cc(-c2cnc([C@@H]3CC[C@H](C)N3C(=O)[C@@H](NC(=O)OC)[C@@H](C)OC)[nH]2)ccc1-4 (stereo partly drawn)")
"category 1"
